Origin of values: PubChem BioAssay AID1778

tested_system: Kappa-type opioid receptor (Homo sapiens)
assay_protocol: kappa opioid receptor blockers – cell-based, luminescence, uHTS (AID 1778)
run_parameters: KOR beta-arrestin recruitment, antagonist mode; at 10 µM unless noted
Among all 290,000 compounds or so, about 260 (0.09%) were called active. Rule as the data show it: active = inhibition above about 50%; inactive = the rest. The full list was thinned out, with actives kept by preference. Entries with a potency or affinity are not part of this list.
Give one outcome, nothing more. List: yes (1) (active), no (0) (inactive)

Take a look at these entries with their results.
CCc1cc2c(=O)[nH]c(-c3ccccn3)nc2s1	yes (1)
O=C(O)/C=C/c1cccnc1	no (0)
COc1ccc(N=Nc2nc(-c3ccccc3)c(-c3ccccc3)[nH]2)cc1	no (0)
Cc1ccc(S(=O)(=O)NN)c(C)c1N1CCCC1=O	no (0)
COc1ccc(OC)c(NC(=O)c2cc3sccc3n2C)c1	no (0)

Enquiry: Given CCOc1cc(/C=N/NC(=O)C(=O)NCCCOC(C)C)cc(Br)c1O , state the outcome it received in this test.
Return: no (0)

Enquiry: Given O=C(Oc1ccc(Cl)c2cccnc12)c1ccco1 , state the outcome it received in this test.
Return: no (0)

====

tested_system: Kappa-type opioid receptor (Homo sapiens) (UniProt P41145)
Sequence (P41145 whole entry, looked up): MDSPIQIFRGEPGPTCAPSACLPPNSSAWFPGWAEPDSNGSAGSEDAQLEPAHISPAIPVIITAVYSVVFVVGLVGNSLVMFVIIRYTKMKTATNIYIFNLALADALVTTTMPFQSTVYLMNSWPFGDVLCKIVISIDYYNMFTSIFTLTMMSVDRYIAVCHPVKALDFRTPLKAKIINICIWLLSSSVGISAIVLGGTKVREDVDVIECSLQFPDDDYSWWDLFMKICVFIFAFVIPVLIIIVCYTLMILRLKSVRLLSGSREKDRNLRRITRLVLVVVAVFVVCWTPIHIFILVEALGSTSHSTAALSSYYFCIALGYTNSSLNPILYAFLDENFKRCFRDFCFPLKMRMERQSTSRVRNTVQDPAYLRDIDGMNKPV
assay_protocol: kappa opioid receptor blockers – cell-based, luminescence, uHTS (AID 1778)
run_parameters: KOR beta-arrestin recruitment, antagonist mode, hits give high values; at 10 µM unless noted
Out of some 290,000 compounds screened, about 260 (0.09%) were called active. Only a selection was taken, and actives are over-represented in it overall. Entries with a potency or affinity are not part of this list.
property_label: inhibition

Sample answers from the record:
CCC1CCCCN1C(=O)CSc1nc(N)cc(N)n1 (centres undefined)	0.8% [at 20 µM] (inactive)
O=C(CCN1CCN(c2ccccc2)CC1)Nc1nccs1	11.6% (inactive)
CN(CCCNC(=O)C1CCN(S(=O)(=O)N2CCC3(CC2)OCCO3)CC1)Cc1ccccc1	-79.2% (inactive)
Cc1nc(Nc2nc3ccccc3o2)nc2c1CCC2	21.7% (inactive)

Enquiry: I would be grateful if you could share the reported inhibition for CCN(CCCNC(=O)C1CCN(S(=O)(=O)CC)CC1)c1ccccc1 .
Return: 17.3% (inactive)

====

tested_system: Kappa-type opioid receptor (Homo sapiens) (UniProt P41145)
assay_protocol: kappa opioid receptor blockers – cell-based, luminescence, uHTS (AID 1778)
run_parameters: KOR beta-arrestin recruitment, antagonist mode, hits give high values; at 10 µM unless noted
The whole screen tested about 290,000 compounds, of which about 260 (0.09%) were called active. The list comes from a sample in which actives are over-represented; it also holds close analogues and randomly drawn compounds. Measured potencies and affinities stand elsewhere.
property_label: inhibition

Cc1nn(C)cc1CNC(=O)C1(C)CC1(Cl)Cl (configuration not stated)	11.1% (inactive)

# next compound below
Enquiry: Param readout = inhibition; param system = Kappa-type opioid receptor (Homo sapiens) (UniProt P41145); param query = O=C(NNc1nc2c(F)cc(F)cc2s1)c1ccccc1 ; response: value
Return: 30.3% (inactive)

====

tested_system: Kappa-type opioid receptor (Homo sapiens)
assay_protocol: kappa opioid receptor blockers – cell-based, luminescence, uHTS (AID 1778)
run_parameters: KOR beta-arrestin recruitment, antagonist mode, hits give high values; at 10 µM unless noted
The whole screen tested about 290,000 compounds, of which about 260 (0.09%) were called active. The sample as a whole holds a higher share of actives than the screen did. Potency and affinity values are given separately.
Hi, to clarify the labels: met covers inhibition from 20% upward, not met covers anything below 20%.

Take a look at these entries with their results.
COc1cc2c(cc1OC)CN(C(=O)CCNS(=O)(=O)c1ccccc1F)CC2	not met
O=C(CSc1nc2ccsc2c(=O)n1CC1CCC(C(=O)O)CC1)c1ccc(F)cc1 (stereo unspecified)	not met
CN(C)S(=O)(=O)c1cccc(N=C2SCCN2Cc2ccccc2)c1	not met
Cn1c(C(=O)NCc2cccnc2)cc2sccc21	met
O=C(CCN1C(=O)S/C(=C/c2ccc(Cl)cc2)C1=O)N1CCOCC1	met
CCOc1ccc(N2CC(C(=O)Nc3ccncc3)CC2=O)cc1 (stereo unspecified)	not met

Enquiry: inhibition >= 20% for COc1ccc(C)cc1N(C(=O)c1ccco1)C(C(=O)NC1CCCC1)c1ccc(N2CCOCC2)cc1 (stereo unspecified) ?
Return: not met

Enquiry: inhibition >= 20% for Fc1ccc(-c2ccnc(=S)[nH]2)cc1 ?
Return: not met

Enquiry: inhibition >= 20% for CC1SCC(NC(=O)c2cccc(Cl)c2)CS1 (stereo unspecified) ?
Return: not met

Enquiry: inhibition >= 20% for COc1ccc(NS(=O)(=O)c2cc(NC(=O)c3cccnc3Cl)ccc2N2CCCC2)cc1 ?
Return: met

Enquiry: inhibition >= 20% for Cc1cnc(C)c(N2CCN(Cc3nc(-c4ccccc4)no3)CC2)n1 ?
Return: not met

====

# key: entry, value: inhibition
tested_system: Kappa-type opioid receptor (Homo sapiens) (UniProt P41145)
assay_protocol: kappa opioid receptor blockers – cell-based, luminescence, uHTS (AID 1778)
run_parameters: KOR beta-arrestin recruitment, antagonist mode, hits give high values; at 10 µM unless noted
The whole screen tested about 290,000 compounds, of which about 260 (0.09%) were called active. The entries come from a sample that favours actives as a whole. Entries with a potency or affinity are not part of this list.

CCOC(=O)N1CCN(C(=O)COc2cccc3c2CCN(Cc2cccc(C)c2)C3=O)CC1	8% (inactive)
COc1ccccc1-c1ccc(Nc2cccc(C(F)(F)F)c2)nn1	-2.2% (inactive)
O=C1COc2ccc(C(=O)CSc3nnc(NCc4ccccc4)s3)cc2N1	21.4% (inactive)
Cc1ccc(C(=O)N/C(=C\c2ccc(F)cc2)C(=O)NCCCn2ccnc2)cc1	21.6% (inactive)

Enquiry: I would be grateful if you could share the reported inhibition for CS(=O)(=O)c1ccc2nc(NC(=O)c3ccc(Cl)cc3)sc2c1 .
Return: -55% [at 20 µM] (inactive)

====

tested_system: Kappa-type opioid receptor (Homo sapiens)
assay_protocol: kappa opioid receptor blockers – cell-based, luminescence, uHTS (AID 1778)
run_parameters: KOR beta-arrestin recruitment, antagonist mode; at 10 µM unless noted
Screen size: about 290,000 compounds; about 260 (0.09%) were called active. Rule as the data show it: active = inhibition above about 50%; inactive = the rest. This excerpt belongs to a sample that is enriched for actives. Results with a measured potency or affinity are listed apart.
Give one outcome, nothing more. List: T (active), F (inactive)

COc1ccc(S(=O)(=O)N2CCN(c3ccccn3)CC2)cc1[N+](=O)[O-]	F
COc1ccc(NC(=O)CSc2nnnn2-c2ccc(OC)cc2)cc1	F
NNC(=S)Nc1cccc(Cl)c1	F
COc1ccccc1N1CCN(C(=O)c2cnn3cccnc23)CC1	F

Enquiry: Given CCOC(=O)/C(C#N)=C\c1ccco1 , state the outcome it received in this test.
Return: F

Enquiry: Given CCOc1ccccc1N(C(=O)c1snc(C(N)=O)c1N)C(C(=O)NC1CCCC1)c1cccs1 (stereo not drawn) , state the outcome it received in this test.
Return: F

Enquiry: Given COC(=O)CSc1nc2sc3c(c2c(=O)n1-c1ccc(OC)cc1)CCN(C)C3 , state the outcome it received in this test.
Return: F

Enquiry: Given CCN(c1ccccc1)S(=O)(=O)c1ccc(NC(=O)c2nc(S(C)(=O)=O)ncc2Cl)cc1 , state the outcome it received in this test.
Return: F

Enquiry: Given Cc1csc(NC(=O)Nc2cccc(Cl)c2)n1 , state the outcome it received in this test.
Return: F

Enquiry: Given Cc1ccc2oc(Nc3nc(C)c(C)c(C)n3)nc2c1 , state the outcome it received in this test.
Return: F

Enquiry: Given Cc1cccc(N2CCCn3c2nc2c3c(=O)n(CCN3CCOCC3)c(=O)n2C)c1 , state the outcome it received in this test.
Return: F

Enquiry: Given CN(c1ccccc1)S(=O)(=O)c1ccc(NC(=O)c2nc(S(C)(=O)=O)ncc2Cl)cc1 , state the outcome it received in this test.
Return: F

====

# key: entry, value: inhibition
tested_system: Kappa-type opioid receptor (Homo sapiens)
assay_protocol: kappa opioid receptor blockers – cell-based, luminescence, uHTS (AID 1778)
run_parameters: KOR beta-arrestin recruitment, antagonist mode, hits give high values; at 10 µM unless noted
Screen size: about 290,000 compounds; about 260 (0.09%) were called active. What follows is part of a selection rich in actives, with near analogues and random picks from the rest. Results with a measured potency or affinity are listed apart.

Sample answers from the record:
O=C(Nc1ccccc1Oc1ccsc1C(=O)O)c1ccccc1	11% (inactive)
CCN(CC)CCn1c2ccccc2c2cnc(N=CN(C)C)c(C#N)c21	-24.3% (inactive)
CN(C)C(=O)c1c2c(nc3ccccc13)-c1ccccc1CC2	7.9% (inactive)

Enquiry: I would be grateful if you could share the reported inhibition for CC(=O)N1N=C(c2ccccc2)CC1c1cccc([N+](=O)[O-])c1 (centres undefined) .
Return: -7% [at 20 µM] (inactive)

Enquiry: I would be grateful if you could share the reported inhibition for COCCN=c1scc(-c2cc(OC)c(OC)c(OC)c2)n1/N=C/c1c(C)[nH]c2ccccc12 .
Return: 26.6% (inactive)

Enquiry: I would be grateful if you could share the reported inhibition for O=C(Nc1ccc(Oc2ccccc2)cc1)c1cnc2n(c1=O)CCS2 .
Return: 0.1% (inactive)

Enquiry: I would be grateful if you could share the reported inhibition for CC(=O)c1sc(-c2ccccc2)cc1N .
Return: 4.5% (inactive)

Enquiry: I would be grateful if you could share the reported inhibition for CCCN1C2CCCC1CC(NC(=O)c1ccc(F)cc1)C2 (centres undefined) .
Return: 22.4% (inactive)

Enquiry: I would be grateful if you could share the reported inhibition for C[C@H](NC(=O)c1ccccc1)C(=O)Nc1nc(-c2ccccn2)cs1 .
Return: -31% (inactive)

Enquiry: I would be grateful if you could share the reported inhibition for CN(C)c1nc(=NCc2ccco2)ss1 .
Return: 83.2% (active)

Enquiry: I would be grateful if you could share the reported inhibition for O=C1CCCC(=NCc2ccco2)C1 .
Return: -29.5% (inactive)

Enquiry: I would be grateful if you could share the reported inhibition for c1coc(CN=C2NC(=NCc3ccco3)c3ccccc32)c1 .
Return: -31.2% (inactive)

Enquiry: I would be grateful if you could share the reported inhibition for CC(Oc1ccc(Br)cc1)C(=O)NCc1ccccn1 (centres undefined) .
Return: -23.9% [at 20 µM] (inactive)

Enquiry: I would be grateful if you could share the reported inhibition for CCC(=O)Nc1ccc(C(=O)n2ccc(C)n2)cc1 .
Return: 5.2% (inactive)

Enquiry: I would be grateful if you could share the reported inhibition for CCOC(=O)Cc1[nH]nc2c1C(Cc1ccccc1)C(C#N)=C(N)O2 (centres undefined) .
Return: -4.1% (inactive)

Enquiry: I would be grateful if you could share the reported inhibition for CC(=O)NC1CC2CCCC(C1)N2Cc1ccc(C)cc1 (centres undefined) .
Return: -10% (inactive)

Enquiry: I would be grateful if you could share the reported inhibition for COc1cccc(NC(=O)CSc2ccc3nnc(-c4ccccn4)n3n2)c1 .
Return: 3% (inactive)

Enquiry: I would be grateful if you could share the reported inhibition for Cn1c(=O)c(C(=O)NCc2ccccc2Cl)c(O)c2ccccc21 .
Return: -41.3% [at 20 µM] (inactive)

Enquiry: I would be grateful if you could share the reported inhibition for CC(C)C(=O)OCC(=O)NCc1ccccc1Cl .
Return: -7.3% (inactive)
